target: Adenosine receptors; A1 & A2 (Rattus norvegicus) (UniProt P29276+P25099+P30543); assay: It is the ratio of Ki value of A1 receptor to that of A2 receptor.; type: protein assay
REPORTED_ENDPOINT: Selectivity ratio
Output: the number by itself.

Nc1ncnc2c1ncn2C1CCCC1 4.6

## Input Would you mind telling me what Selectivity ratio value was observed for "Cn1cnc2c(Nc3ccccc3)ncnc21" ?
## Output 9.9

## Input Give its Selectivity ratio value. Item: "Cn1cnc2c(NC3CCCC3)ncnc21"
## Output 26

----------
Listing of entries alongside the reported Ki.
biological target: Adenosine A2 receptor (Rattus norvegicus, UniProt P29276+P30543); experiment: Tested for inhibition of rat PC12 adenylate cyclase stimulation by using NECA as a radioligand; assay type: cell-based; conditions: pc-12
Provide the reading as a plain figure in µM.

Reference set (2 entries):
CC[C@H](Nc1ncnc2c1ncn2C)c1ccccc1.Cl 74
CCn1cnc2c(NC3CCCC3)ncnc21 10.3

## Input Notebook entry, Adenosine A2 receptor (Rattus norvegicus, UniProt P29276+P30543) assay: Ki of "Nc1ncnc2c1ncn2-c1ccccc1" = ?
## Output 74

// provenance: ChEMBL document CHEMBL1125213
